Overview of reported pKd across a group of compounds:
# study-target: MDM4 (Homo sapiens, UniProt O15151+Q00987)
# Construct: RING domain (MDM2-MDM4 RING heterodimer, pETDuet, E. coli); with MDM2 (RING domain)
# Sequence (O15151 416-490 limits assumed): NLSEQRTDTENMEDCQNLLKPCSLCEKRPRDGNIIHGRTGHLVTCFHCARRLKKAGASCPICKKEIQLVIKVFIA
# Sequence (Q00987 430-491 limits assumed): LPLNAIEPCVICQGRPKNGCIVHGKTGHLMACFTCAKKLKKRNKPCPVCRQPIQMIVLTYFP
# experimental-details: microscale thermophoresis on preformed, dye-labelled MDM2-MDM4 RING heterodimer
pKd: −log10 of the molar value.

{"compound": "Oc1c(C(Nc2ccccn2)c2cccc(Cl)c2Cl)ccc2cccnc12 (racemic) [MMRi62]", "study-target": "MDM4 (Homo sapiens, UniProt O15151+Q00987)", "pKd": "~6.85"}

Pending compound:
[Q] Tell me the measured pKd of O=C(O)c1ccc(C(Nc2ccccn2)c2cc(Cl)c3cccnc3c2O)cc1 (racemic) [MMRi67] , please.
[A] ~6.05

Data origin, for the record: paper PMC9389462
